test: Toxicity liver stage against HepG2, at 10uM; format: cell-based; parameters: test concentration 10 uM, cell line HepG2-A16-CD81EGFP; conditions: human, HepG2-A16-CD81EGFP cells; read-out: INHIBITION
Measurement label: cytotoxicity at 10 µM (%)
Please give a number only; it is taken to be in %.

Compound	cytotoxicity at 10 µM (%)
CCN(Cc1nccn1C)C1CCN(c2ccccc2)C1=O (configuration not stated)	4.19

Notebook: `Cn1nc(C(=O)NN2CCOCC2)c(Cl)c1C(F)(F)F` , cytotoxicity at 10 µM read as 2.99

Notebook: `Cc1cc(NC(=O)CCn2cncn2)no1` , cytotoxicity at 10 µM read as 2.89

Notebook: `COc1cc(CNCc2ccc(-n3nc(C)cc3C)nc2)cc(OC)c1` , cytotoxicity at 10 µM read as -8.57

Notebook: CCC(C)NC(=O)CS(=O)(=O)Cc1cc(C)ccc1C (configuration not stated) , cytotoxicity at 10 µM read as -3.06

Notebook: `O=C(c1cccnc1)N(Cc1ccncc1)C1CC1` , cytotoxicity at 10 µM read as 8.32

Notebook: `Cc1ccc(NC(=O)[C@H]2C[C@H](C(=O)O)CN(CC3CC3)C2)cn1` , cytotoxicity at 10 µM read as 0.999

Notebook: `CCOc1ccnc(N2CCN(C(=O)CCc3ccncc3)CC2)n1` , cytotoxicity at 10 µM read as -0.662

Notebook: `CSCCc1c(-c2ccccc2)ncn1[C@H]1C[C@@H](C(=O)O)N(C)C1` , cytotoxicity at 10 µM read as 0.471

Notebook: `COCC(=O)N1CCc2cccc(S(=O)(=O)N3CCOCC3)c2C1` , cytotoxicity at 10 µM read as -5.42

Notebook: COCCn1cc(C(=O)N2CCCC2c2cccs2)c2ccccc21 (configuration not stated) , cytotoxicity at 10 µM read as 23.7

Notebook: NC(CC1CCCC1)c1ccc(Oc2ccccc2)cc1 (configuration not stated) , cytotoxicity at 10 µM read as 3.72
